Reference source: patent US12227488B2

# MEASUREMENT TARGET: IKZF1 (Homo sapiens)
# Construct: expressed in transfected cells; host or cells: Flp-In 293
# Sequence (Q13422 83-213 isoform Q13422-7 limits assumed): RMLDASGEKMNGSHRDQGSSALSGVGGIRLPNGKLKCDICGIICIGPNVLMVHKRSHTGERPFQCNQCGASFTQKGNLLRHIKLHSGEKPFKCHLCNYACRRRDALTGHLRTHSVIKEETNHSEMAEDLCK
# Sequence (Q96SW2 whole entry partner): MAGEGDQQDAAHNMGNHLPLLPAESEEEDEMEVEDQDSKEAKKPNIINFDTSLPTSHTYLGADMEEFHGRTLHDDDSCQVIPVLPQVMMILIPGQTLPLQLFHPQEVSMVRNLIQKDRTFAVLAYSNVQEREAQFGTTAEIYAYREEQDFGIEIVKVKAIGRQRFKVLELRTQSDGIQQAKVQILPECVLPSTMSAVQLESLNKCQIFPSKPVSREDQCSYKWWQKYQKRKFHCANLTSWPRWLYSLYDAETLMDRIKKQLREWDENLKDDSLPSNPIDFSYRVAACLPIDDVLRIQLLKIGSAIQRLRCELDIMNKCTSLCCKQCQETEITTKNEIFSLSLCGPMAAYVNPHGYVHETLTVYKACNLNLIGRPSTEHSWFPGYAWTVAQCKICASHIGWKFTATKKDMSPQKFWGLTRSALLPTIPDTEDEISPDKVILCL
# Sequence (Q16531 2-1140 partner limits assumed): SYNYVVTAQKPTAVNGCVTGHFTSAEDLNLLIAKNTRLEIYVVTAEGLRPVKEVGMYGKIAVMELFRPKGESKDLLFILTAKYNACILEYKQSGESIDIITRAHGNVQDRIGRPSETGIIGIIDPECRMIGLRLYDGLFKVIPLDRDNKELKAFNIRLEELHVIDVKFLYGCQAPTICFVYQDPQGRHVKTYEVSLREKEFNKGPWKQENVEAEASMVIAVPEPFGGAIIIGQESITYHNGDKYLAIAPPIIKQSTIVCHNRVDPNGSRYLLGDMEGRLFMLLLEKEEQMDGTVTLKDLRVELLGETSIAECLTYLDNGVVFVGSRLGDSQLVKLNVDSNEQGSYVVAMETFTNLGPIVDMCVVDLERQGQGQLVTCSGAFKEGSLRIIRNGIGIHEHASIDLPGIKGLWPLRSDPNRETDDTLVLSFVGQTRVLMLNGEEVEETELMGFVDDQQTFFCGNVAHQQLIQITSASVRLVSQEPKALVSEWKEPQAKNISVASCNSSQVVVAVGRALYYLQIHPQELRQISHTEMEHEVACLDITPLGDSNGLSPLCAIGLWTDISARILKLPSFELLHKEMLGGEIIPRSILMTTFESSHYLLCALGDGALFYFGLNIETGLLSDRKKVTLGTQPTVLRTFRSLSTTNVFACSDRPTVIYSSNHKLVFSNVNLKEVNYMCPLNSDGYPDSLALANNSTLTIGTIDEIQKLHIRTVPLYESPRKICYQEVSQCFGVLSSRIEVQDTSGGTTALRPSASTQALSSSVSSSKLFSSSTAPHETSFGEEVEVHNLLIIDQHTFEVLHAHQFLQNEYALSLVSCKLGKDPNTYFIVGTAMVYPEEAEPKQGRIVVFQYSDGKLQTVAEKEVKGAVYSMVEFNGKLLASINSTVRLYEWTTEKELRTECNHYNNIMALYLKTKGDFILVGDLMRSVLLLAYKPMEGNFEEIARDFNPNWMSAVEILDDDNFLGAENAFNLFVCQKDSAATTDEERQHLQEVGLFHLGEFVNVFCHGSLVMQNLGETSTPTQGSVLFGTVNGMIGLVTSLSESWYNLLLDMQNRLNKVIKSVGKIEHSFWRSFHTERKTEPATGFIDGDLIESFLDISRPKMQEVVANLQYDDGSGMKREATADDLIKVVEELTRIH
# MEASUREMENT PROTOCOL: Cellular degradation assay, eGFP-IKZF1Δ fusion with mCherry reporter in Flp-In 293 cells
# Type: cell-based
# PROTOCOL CONDITIONS: compound concentration 2.00E−07; 5 h incubation; n=1
Response field class: enum, chosen by comparing IKZF1 GFP/RFP Relative Abundance against A (below 0.1), B (0.1 to below 0.6), C (0.6 or more)

Illustrative cases are given below, each with its answer.
{"COMPOUND": "CCOC(=O)c1cccc(NC2=CC(=O)N(C3CCC(=O)NC3=O)C2=O)c1 (centres unmarked) [Compound 30]", "CLASS ASSIGNMENT": "C"}
{"COMPOUND": "Cc1ccc(NC2=CC(=O)N(C3CCC(=O)NC3=O)C2=O)cc1C (centres unmarked) [Compound 24]", "CLASS ASSIGNMENT": "B"}
{"COMPOUND": "Cc1cc(NC2=CC(=O)N(C3CCC(=O)NC3=O)C2=O)ccc1Cl (centres unmarked) [Compound 4]", "CLASS ASSIGNMENT": "B"}
{"COMPOUND": "Cc1ccc(NC(=O)NCc2cccc(NC3=CC(=O)N(C4CCC(=O)NC4=O)C3=O)c2)cc1Cl (centres unmarked) [Compound 44]", "CLASS ASSIGNMENT": "A"}
{"COMPOUND": "Cc1ccc(NC(=O)NCCc2cccc(NC3=CC(=O)N(C4CCC(=O)NC4=O)C3=O)c2)cc1Cl (centres unmarked) [Compound 62]", "CLASS ASSIGNMENT": "B"}

Query: Category of Cc1ccc(CNC(=O)c2cccc(NC3=CC(=O)N(C4CCC(=O)NC4=O)C3=O)c2)cc1Cl (centres unmarked) [Compound 122] , please.
Response: A

Query: Which of the defined bands does the recorded IKZF1 GFP/RFP Relative Abundance of Cc1cc(CNC(=O)NC(C)c2cccc(NC3=CC(=O)N(C4CCC(=O)NC4=O)C3=O)c2)ccc1Cl (centres unmarked) [Compound 120] sit within?
Response: A

Query: Class for Cc1ccc(NC(=O)N(C)Cc2cccc(NC3=CC(=O)N(C4CCC(=O)NC4=O)C3=O)c2)cc1Cl (centres unmarked) [Compound 52] ?
Response: A

Query: Assign a bin to Cc1ccc(NC(=O)Nc2cccc3c(NC4=CC(=O)N(C5CCC(=O)NC5=O)C4=O)cccc23)cc1Cl (centres unmarked) [Compound 124]
Response: C

Query: Band of Cc1ccc(N(C)C(=O)CCc2cccc(NC3=CC(=O)N(C4CCC(=O)NC4=O)C3=O)c2)cc1Cl (centres unmarked) [Compound 127] ?
Response: A

Query: Into which category would you place O=C1CCC(N2C(=O)C=C(Nc3nc[nH]n3)C2=O)C(=O)N1 (centres unmarked) [Compound 18] ?
Response: C

Query: Bin this entry: O=C1CCC(N2C(=O)C=C(Nc3nccs3)C2=O)C(=O)N1 (centres unmarked) [Compound 19]
Response: B

Query: Band of O=C1CCC(N2C(=O)C=C(Nc3ccc(Cc4ccccc4)cc3)C2=O)C(=O)N1 (centres unmarked) [Compound 39] ?
Response: C

Query: Which of the defined bands does the recorded IKZF1 GFP/RFP Relative Abundance of Cc1ccc(NC(=O)NC(C)(C)c2cccc(NC3=CC(=O)N(C4CCC(=O)NC4=O)C3=O)c2)cc1Cl (centres unmarked) [Compound 69] sit within?
Response: B

Query: Note: place this compound into its band. Item: O=C1CCC(N2C(=O)C=C(Nc3ccc(Cl)cc3)C2=O)C(=O)N1 (centres unmarked) [Compound 25]
Response: B

====

# MEASUREMENT TARGET: IKZF1 (Homo sapiens)
# Construct: expressed in transfected cells; host or cells: Flp-In 293
# MEASUREMENT PROTOCOL: Cellular degradation assay, eGFP-IKZF1Δ fusion with mCherry reporter in Flp-In 293 cells
# Assay type: cell-based
# PROTOCOL CONDITIONS: half degradation at 5 h (DC50,5 h); triplicate, 11 point dose response
What log10 DC50 was measured for each of the following?
Values below are the log10 of the recorded DC50, with nM as the unit.

{"MOLECULE": "CC(C)(NC(=O)Cc1cccc(C(F)(F)F)c1)c1cccc(NC2=CC(=O)N(C3CCC(=O)NC3=O)C2=O)c1 (centres unmarked)", "log10 DC50": 2.22}
{"MOLECULE": "CC(NC(=O)Cc1cccc(C(F)(F)F)c1)c1cccc(NC2=CC(=O)N(C3CCC(=O)NC3=O)C2=O)c1 (centres unmarked)", "log10 DC50": 1.20}
{"MOLECULE": "Cc1ccc(NC(=O)NCCc2cccc(NC3=CC(=O)N(C4CCC(=O)NC4=O)C3=O)c2)cc1Cl (centres unmarked)", "log10 DC50": 1.41}
{"MOLECULE": "Cc1ccc(NC(=O)NC(C)(C)c2cccc(NC3=CC(=O)N(C4CCC(=O)NC4=O)C3=O)c2)cc1Cl (centres unmarked)", "log10 DC50": 1.15}
{"MOLECULE": "Cc1ccc(NC(=O)N[C@@H](C)c2cccc(NC3=CC(=O)N(C4CCC(=O)NC4=O)C3=O)c2)cc1Cl (some centres unmarked)", "log10 DC50": 0.32}

For each listed entry, give its log10 DC50.
1. Cc1ccc(NC(=O)c2cccc(NC3=CC(=O)N(C4CCC(=O)NC4=O)C3=O)c2)cc1Cl (centres unmarked)
2. O=C1CCC(N2C(=O)C=C(Nc3cccc(CCC(=O)Nc4cccc(C(F)(F)F)c4)c3)C2=O)C(=O)N1 (centres unmarked)
3. CCC(NC(=O)Nc1ccc(C)c(Cl)c1)c1cccc(NC2=CC(=O)N(C3CCC(=O)NC3=O)C2=O)c1 (centres unmarked)

Response:
0.28
0.51
0.89

Report log10 DC50 for each item below.
1. Cc1ccc(NC(=O)CNc2cccc(NC3=CC(=O)N(C4CCC(=O)NC4=O)C3=O)c2)cc1Cl (centres unmarked)
2. Cc1ccc(NC(=O)NCc2ccc3c(c2)CN(C2CCC(=O)NC2=O)C3=O)cc1Cl (centres unmarked) [CC-885, reference compound]

Response:
1. 0.28
2. -0.25

Query: Indicate its recorded log10 DC50; the molecule in question is Cc1ccc(NC(=O)COc2cccc(NC3=CC(=O)N(C4CCC(=O)NC4=O)C3=O)c2)cc1Cl (centres unmarked)
Response: 0.23

====

# MEASUREMENT TARGET: CRBN and Helios (IKZF2) (Homo sapiens, UniProt Q96SW2+Q9UKS7)
# Construct: His (N); Strep (N)
# Sequence (Q96SW2 whole entry): as the sequence (Q96SW2 whole entry partner) above
# Sequence (Q9UKS7 whole entry): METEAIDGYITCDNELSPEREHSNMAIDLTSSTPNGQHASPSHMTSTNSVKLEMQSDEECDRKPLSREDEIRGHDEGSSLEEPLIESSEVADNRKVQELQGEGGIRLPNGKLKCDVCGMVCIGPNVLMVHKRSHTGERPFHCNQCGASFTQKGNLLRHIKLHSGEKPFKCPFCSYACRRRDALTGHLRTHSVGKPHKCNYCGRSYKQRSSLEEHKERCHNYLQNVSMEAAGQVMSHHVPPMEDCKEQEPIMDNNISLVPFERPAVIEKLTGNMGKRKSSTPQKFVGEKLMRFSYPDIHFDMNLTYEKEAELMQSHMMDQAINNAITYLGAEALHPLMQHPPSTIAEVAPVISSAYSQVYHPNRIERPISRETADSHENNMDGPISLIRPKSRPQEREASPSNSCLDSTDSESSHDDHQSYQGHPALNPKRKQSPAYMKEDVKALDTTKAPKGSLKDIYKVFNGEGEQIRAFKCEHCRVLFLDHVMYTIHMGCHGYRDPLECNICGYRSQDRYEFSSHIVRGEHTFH
# MEASUREMENT PROTOCOL: TR-FRET dimerization assay (CRBN-IKZF2 ternary complex formation)
# Assay type: binding
# PROTOCOL CONDITIONS: compound concentration 6.6667E−05; n=1
Response key: Met means TR-FRET-IKZF2 (Normalized to CC-885) >= 0.5; Not met means TR-FRET-IKZF2 (Normalized to CC-885) < 0.5.

Here are 3 molecules together with their reported answers.
{"MOLECULE": "Cc1ccc(NC(=O)N2Cc3ccc(NC4=CC(=O)N(C5CCC(=O)NC5=O)C4=O)cc3C2)cc1Cl (stereo not shown) [Compound 107]", "CLASS ASSIGNMENT": "Not met"}
{"MOLECULE": "Cc1ccc(NC(=O)Nc2cccc(NC3=CC(=O)N(C4CCC(=O)NC4=O)C3=O)c2)cc1C (stereo not shown) [Compound 55]", "CLASS ASSIGNMENT": "Met"}
{"MOLECULE": "Cc1ccc(NC(=O)N2CCc3ccc(NC4=CC(=O)N(C5CCC(=O)NC5=O)C4=O)cc3C2)cc1Cl (stereo not shown) [Compound 109]", "CLASS ASSIGNMENT": "Not met"}

Query: TR-FRET-IKZF2 (Normalized to CC-885) >= 0.5 for Cc1ccc(NC(=O)NCc2ccc(NC3=CC(=O)N(C4CCC(=O)NC4=O)C3=O)cc2)cc1Cl (stereo not shown) [Compound 46] ?
Response: Met

Query: Threshold query (TR-FRET-IKZF2 (Normalized to CC-885) >= 0.5) on COC(=O)CN(C)C1=CC(=O)N(C2CCC(=O)NC2=O)C1=O (stereo not shown) [Compound 15]
Response: Not met

Query: Hi, just wondering whether Cc1ccc(NC(=O)Cc2cccc(NC3=CC(=O)N(C4CCC(=O)NC4=O)C3=O)c2)cc1Cl (stereo not shown) [Compound 50] shows TR-FRET-IKZF2 (Normalized to CC-885) of 0.5 or higher.
Response: Met

Query: Check if TR-FRET-IKZF2 (Normalized to CC-885) >= 0.5 (inclusive). Item: Cc1ccc(NC(=O)NCc2cc(NC(=O)N(C)C)cc(NC3=CC(=O)N(C4CCC(=O)NC4=O)C3=O)c2)cc1Cl (stereo not shown) [Compound 112]
Response: Not met
